Source of measurements: patent US20040002526A1

system_under_test: PLD (phospholipase D)
Construct: fused on or other part: N-terminal polyhistidine tag (pFastBac HTc) on either enzyme
assay_method_text: In vitro assay of PLD activity ([3H]-choline release from labelled PC)
Type: biochemical, human
particulars: Table 3, tricyclic thiazolidinones of Formula II; PLD isoform not stated; read-out: IC50
parameter_measured: IC50 (µM)
Give a bare numeral; the unit µM is implied.

INSERT INTO assay_data (smiles_string, system_under_test, endpoint_unit, number) VALUES
  ('Cc1cc2nc3s/c(=C/c4ccc(-c5cccc(C(=O)O)c5)o4)c(=O)n3c2cc1C', 'PLD (phospholipase D)', 'µM', 3.4);

Now for a further molecule.
Form field, IC50 with PLD (phospholipase D), item `Cc1cc2nc3s/c(=C\c4ccc(-c5ccc(O)c(C(=O)O)c5)o4)c(=O)n3c2cc1C` : 3.6

---

Listing of recorded IC50 by entry.
system_under_test: PLD (phospholipase D)
Construct: fused on or other part: N-terminal polyhistidine tag (pFastBac HTc) on either enzyme
assay_method_text: In vitro assay of PLD activity ([3H]-choline release from labelled PC)
Format: biochemical, human
particulars: Table 1, monocyclic thiazolidinones of Formula I; PLD isoform not stated; read-out: IC50
Method: Recombinant PLD1 and PLD2—Human PLD1 and PLD2 were isolated from Sf9 insect cells that had been infected with recombinant baculovirus vector, pFastBac™HTc vector (Life Technologies, Gaithersburg, Md.), containing PLD1 or PLD2 cDNAs. PLD1 activity was assayed by measuring the generation of [^3H]-choline from [choline-methyl^3H](16:0, 16:0)PC. The assay procedure for PLD2 was similar to that for PLD1, with the exception that arf1, PKC-α, and GTPγS were omitted from the reaction mixture. […]

Example entries begin here.
INSERT INTO assay_data (compound, result) VALUES
  ('Cc1cccc(N2C(=O)/C(=C/c3ccc(-c4cccc(C(=O)O)c4)o3)SC2=S)c1 [Compound 11]', '< 400 nM'),
  ('O=C(O)c1cccc(-c2ccc(/C=C3\SC(=S)N(C4CCCCC4)C3=O)o2)c1 [Compound 24]', '< 400 nM');

Now for a further compound.
Entry COc1ccc(N2C(=O)/C(=C\c3ccc(-c4ccc(C(=O)O)cc4)o3)SC2=S)cc1 [Compound 12] — recorded IC50 = < 400 nM

---

Listing of recorded IC50 by entry.
system_under_test: PLD (phospholipase D)
Construct: fused on or other part: N-terminal polyhistidine tag (pFastBac HTc) on either enzyme
assay_method_text: In vitro assay of PLD activity ([3H]-choline release from labelled PC)
Format: biochemical, human
particulars: Table 1, monocyclic thiazolidinones of Formula I; PLD isoform not stated; read-out: IC50
Give a bare numeral; the unit nM is implied.

INSERT INTO assay_data (smiles_string, parameter_measured, endpoint_unit, number) VALUES
  ('COC(=O)c1ccc(-c2ccc(/C=C3\SC(=S)N(Cc4cc(OC)c(OC)c(OC)c4)C3=O)o2)cc1', 'IC50', 'nM', 3000),
  ('COc1ccc(N2C(=O)/C(=C\c3ccc(-c4cccc(C(=O)O)c4)o3)SC2=S)cc1', 'IC50', 'nM', 1300),
  ('Cc1cccc(N2C(=O)/C(=C/c3ccc(-c4ccc(C(=O)O)cc4)o3)SC2=S)c1', 'IC50', 'nM', 600);

Entry `N#Cc1ccc(-c2ccc(/C=C3\SC(=S)N(Cc4cccnc4)C3=O)o2)cc1` — recorded IC50 = 4000

Entry `O=C(O)CN1C(=O)/C(=C\c2ccc(-c3ccccc3Cl)o2)SC1=S` — recorded IC50 = 1800

Entry `Cc1ccc(CN2C(=O)/C(=C/c3ccc(-c4ccc(C(=O)O)cc4)o3)SC2=S)cc1` — recorded IC50 = 2000

Entry `O=C(O)c1cccc(-c2ccc(/C=C3/SC(=S)N(c4cccc(Cl)c4)C3=O)o2)c1` — recorded IC50 = 400

Entry `COc1cc(CN2C(=O)/C(=C/c3ccc(-c4ccc(C(=O)O)cc4)o3)SC2=S)cc(OC)c1OC` — recorded IC50 = 3000
